This section presents compounds with their documented pIC50 values.
experimental target: Gamma-secretase
procedure summary: Inhibition of gamma-secretase (unknown origin) expressed in N2a NL/N cells coexpressing betaAPPNL and NotchdeltaE assessed as Abeta42 secretion by ELISA
Assay type: cell-based, Homo sapiens
Please treat pIC50 as minus the base-10 logarithm of the molar concentration.

CC(=O)N[C@H]1CCC[C@@H]1C(=O)N[C@H]1CCC[C@@H]1C(=O)N[C@@H](CC(N)=O)CC(=O)N[C@H]1CCC[C@@H]1C(=O)N[C@H]1CCC[C@@H]1C(=O)N[C@H]1CCC[C@@H]1C(=O)N[C@H]1CCC[C@@H]1C(=O)N[C@H]1CCC[C@@H]1C(=O)N[C@H]1CCC[C@@H]1C(=O)N[C@H]1CCC[C@@H]1C(=O)N[C@H]1CCC[C@@H]1C(=O)N[C@H]1CCC[C@@H]1C(N)=O = 9.06

Sample CC(=O)N[C@H]1CCC[C@@H]1C(=O)N[C@H]1CCC[C@@H]1C(=O)N[C@H]1CCC[C@@H]1C(=O)N[C@H]1CCC[C@@H]1C(=O)N[C@H]1CCC[C@@H]1C(=O)N[C@H]1CCC[C@@H]1C(=O)N[C@H]1CCC[C@@H]1C(=O)N[C@H]1CCC[C@@H]1C(=O)N[C@H]1CCC[C@@H]1C(=O)N[C@H]1CCC[C@@H]1C(N)=O — what was its pIC50?
5.28

Sample CC(=O)N[C@H]1CCC[C@@H]1C(=O)N[C@H]1CCC[C@@H]1C(=O)NC(CO)CC(=O)N[C@H]1CCC[C@@H]1C(=O)N[C@H]1CCC[C@@H]1C(=O)N[C@H]1CCC[C@@H]1C(=O)N[C@H]1CCC[C@@H]1C(=O)N[C@H]1CCC[C@@H]1C(=O)N[C@H]1CCC[C@@H]1C(=O)N[C@H]1CCC[C@@H]1C(=O)N[C@H]1CCC[C@@H]1C(=O)N[C@H]1CCC[C@@H]1C(N)=O (single isomer, unassigned) — what was its pIC50?
9.08

----------
experimental target: Gamma-secretase (Homo sapiens) (UniProt Q96BI3+Q9NZ42+Q8WW43+P49768+Q92542+P49810)
procedure summary: Inhibition of gamma-secretase (unknown origin) expressed in N2a NL/N cells coexpressing betaAPPNL and NotchdeltaE assessed as Abeta42 secretion at 100 nM by ELISA
Type: cell-based
The source made the active and inactive calls. The calls are words filed in the database; no cut-off is given here.
A correct response names exactly one class from true (1) for active, false (0) for inactive

Look over these answered cases.
CC(=O)N[C@H]1CCC[C@@H]1C(=O)N[C@H]1CCC[C@@H]1C(=O)N[C@H]1CCC[C@@H]1C(=O)N[C@H]1CCC[C@@H]1C(=O)N[C@H]1CCC[C@@H]1C(=O)N[C@H]1CCC[C@@H]1C(=O)N[C@H]1CCC[C@@H]1C(=O)N[C@H]1CCC[C@@H]1C(=O)N[C@@H](CC(N)=O)CC(=O)N[C@H]1CCC[C@@H]1C(=O)N[C@H]1CCC[C@@H]1C(=O)N[C@H]1CCC[C@@H]1C(N)=O = false (0)
CC(=O)N[C@H]1CCC[C@@H]1C(=O)N[C@H]1CCC[C@@H]1C(=O)N[C@H]1COC[C@@H]1C(=O)N[C@H]1CCC[C@@H]1C(=O)N[C@H]1CCC[C@@H]1C(=O)N[C@H]1CCC[C@@H]1C(=O)N[C@H]1CCC[C@@H]1C(=O)N[C@H]1CCC[C@@H]1C(=O)N[C@H]1CCC[C@@H]1C(=O)N[C@H]1CCC[C@@H]1C(=O)N[C@H]1CCC[C@@H]1C(=O)N[C@H]1CCC[C@@H]1C(N)=O = true (1)

// return assay outcome for CC(=O)N[C@H]1CCC[C@@H]1C(=O)N[C@H]1CCC[C@@H]1C(=O)NC(CO)CC(=O)N[C@H]1CCC[C@@H]1C(=O)N[C@H]1CCC[C@@H]1C(=O)N[C@H]1CCC[C@@H]1C(=O)N[C@H]1CCC[C@@H]1C(=O)N[C@H]1CCC[C@@H]1C(=O)N[C@H]1CCC[C@@H]1C(=O)N[C@H]1CCC[C@@H]1C(=O)N[C@H]1CCC[C@@H]1C(=O)N[C@H]1CCC[C@@H]1C(N)=O (single isomer, unassigned)
true (1)
